These entries and their values trace back to patent US8377922B2.

The compounds listed here are annotated with their IC50.
test system: αvβ6 expressed cells (HT-29 cells); test: Cell adhesion test of αvβ6 expressed cell; assay type: cell-based; conditions: binding to human fibronectin, read-out: αvβ6 expressed cells adhesion inhibiting IC50 value
Where a name gives a salt, the structure may show the parent alone.
# value in nM; strip the unit string

Compound: O=C(O)C[C@@H]1Cc2ccc(OCCc3cn4c(n3)NCCC4)cc2CN(CC(F)(F)F)C1=O
Measurement: 296

Attention now turns to another entry.
Query (compound): O=C(O)CC1Cc2ccc(OCCc3cn4c(n3)NCCC4)cc2CN(CC(F)(F)F)C1=O (stereo not drawn) [Example 2, trifluoroacetate] ; field requested: IC50 441
